test system: breast carcinoma (MCF-7) cells; experiment: Cell viability (MTT) assay, MCF-7; type: cell-based, human; conditions: Homo sapiens, MCF7, 48 h treatment
Could you please report measured IC50 for the items listed next?
Respond numerically; units are nM and should not be typed.

Can you share its IC50? I mean this compound: COc1cc2c3c(c4cc(OC)c(OC)c(OC)c4c2cc1OC)CN1CCCC1C3 (centres unmarked)
224

Can you share its IC50? I mean this compound: COc1cc2c3c(c4cc(OC)c(OC)c(OC)c4c2cc1OC)CN1CCCCC1C3 (centres unmarked)
19.3

Can you share its IC50? I mean this compound: COc1ccc2c(c1)c1c(c3cc(OC)c(OC)cc32)CC2CCCCN2C1 (centres unmarked)
68.7
